Test: log Pow: distribution coefficient between 1-octanol and water
Conditions: 1-octanol/water
Quick list: log Pow per entry.
I only need the number, thanks.

// solved cases for log Pow follow
CCOC(=O)C(C)CC (centres unmarked) [Ethylmethylbutyrate-2]; 2.38
C=CC(C)(O)CCC=C(C)C (centres unmarked); 3.28
C=C(C)[C@@H]1CCC2=CC(=O)C[C@@H](C)[C@]2(C)C1; 4.10
CC(=O)C(C)=O; −1.33

Next item in the queue.
# log Pow (compound: C/C=C/C(=O)C1=C(C)C=CCC1(C)C ) is 4.40

---

Experiment: log Pow* calculated by Formula 2 from log Pow and the polarity parameter P′(x) of the ethanol/water mixture
Conditions: solvent ethanol, proportion 80%
Quick list: log Pow* (P′ 80%) per entry.
I only need the number, thanks.

SCc1ccco1 [Furfurylthiol-2]; −0.15
O=Cc1ccccc1 [Benzaldehyde]; −0.73

Next item in the queue.
# log Pow* (P′ 80%) (compound: c1ccc2[nH]ccc2c1 [Indole] ) is 0.32

---

Assay: log Pow* calculated by Formula 2 from log Pow and the polarity parameter P′(x) of the ethanol/water mixture
Conditions: solvent ethanol, proportion 60%
RECORDED_ENDPOINT: log Pow* (P′ 60%)

OCc1ccco1; −11.71
C/C=C/C(=O)C1=C(C)C=CCC1(C)C; 3.64
Oc1ccccc1; −0.79

Next item in the queue.
# log Pow* (P′ 60%) (molecule: O=Cc1ccccc1 ) is −0.41

---

Assay: log Pow* calculated by Formula 2 from log Pow and the polarity parameter P′(x) of the ethanol/water mixture
Conditions: solvent ethanol, proportion 30%
RECORDED_ENDPOINT: log Pow* (P′ 30%)
I only need the number, thanks.

CC(=O)/C=C/C1=C(C)CCCC1(C)C [beta-ionone]; 3.29
O=Cc1ccco1 [Furfural]; −2.24
CCCCCC1CCCC(=O)O1 (centres unmarked) [delta decalactone]; 1.52
c1ccc2[nH]ccc2c1 [Indole]; 1.13

# log Pow* (P′ 30%) (molecule: CS [Methylmercaptan] ) is −2.68

# log Pow* (P′ 30%) (molecule: CCCCOC(C)=O [Butylacetate] ) is 0.55

# log Pow* (P′ 30%) (molecule: OCc1ccco1 [Furfuryl alcohol] ) is −7.46

# log Pow* (P′ 30%) (molecule: CCC/C=C/C=O [2E-hexenal] ) is 0.26

---

Quick list: log Pow* (P′ 4%) per entry.
Assay: log Pow* calculated by Formula 2 from log Pow and the polarity parameter P′(x) of the ethanol/water mixture
Details: solvent ethanol, proportion 4%

// solved cases for log Pow* (P′ 4%) follow
CC(=O)/C=C/C1=C(C)CCCC1(C)C; 3.75
CC(=O)/C=C/C1C(C)=CCCC1(C)C (centres unmarked); 3.76
CCCCCCC1CCC(=O)O1 (centres unmarked); 2.22

# log Pow* (P′ 4%) (compound: C/C=C/C(=O)C1=C(C)C=CCC1(C)C ) is 4.31

# log Pow* (P′ 4%) (compound: CS ) is 0.05

# log Pow* (P′ 4%) (compound: O=Cc1ccco1 ) is 0.20

# log Pow* (P′ 4%) (compound: SCc1ccco1 ) is 1.70

# log Pow* (P′ 4%) (compound: c1ccc2[nH]ccc2c1 ) is 1.96

---

Experiment: log Pow* calculated by Formula 2 from log Pow and the polarity parameter P′(x) of the ethanol/water mixture
Settings: solvent ethanol, proportion 8%
Quick list: log Pow* (P′ 8%) per entry.
I only need the number, thanks.

C=C(C)[C@@H]1CCC2=CC(=O)C[C@@H](C)[C@]2(C)C1 [Nootkatone]; 3.92
CCOC(=O)C(C)CC (stereo not shown) [Ethylmethylbutyrate-2]; 2.07
CC1=CCC(C(C)(C)S)CC1 (stereo not shown) [p-menthenethiol-1,8]; 3.86

# log Pow* (P′ 8%) (compound: CCC(C)CO (stereo not shown) [2-mebutanol, 2-methylbutanol] ) is 0.72

// data source = patent US8394442B2
